Counter-ions that a name gives are not always drawn.
Quick record of log10 IC50 values for UniProtKB O14684.
Sequence (O14684 whole entry): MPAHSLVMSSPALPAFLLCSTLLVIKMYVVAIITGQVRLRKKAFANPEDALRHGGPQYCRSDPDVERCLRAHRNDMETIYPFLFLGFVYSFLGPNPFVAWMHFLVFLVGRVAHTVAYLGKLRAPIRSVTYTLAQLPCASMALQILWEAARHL
Field: value | Transform: log10 | Quantity: IC50 | Unit: nM

>  <COMPOUND>
COCc1nc2c(C(=O)NCc3cccc(Cl)c3C)cc(NC(=O)c3ccccc3C(F)(F)F)cc2[nH]1 [Example 39, hydrochloride]

>  <TEST_RESULT>
1.02

$$$$
>  <COMPOUND>
Cc1c(Cl)cccc1NC(=O)c1cc(NC(=O)c2ccccc2C(F)(F)F)cc2c1OCC2

>  <TEST_RESULT>
2.20

$$$$
>  <COMPOUND>
Cc1c(Cl)cccc1NC(=O)c1cc(NC(=O)c2c(F)cccc2Br)cc2[nH]c(N(C)C)nc12 [Example 186, hydrochloride]

>  <TEST_RESULT>
0.79

$$$$
>  <COMPOUND>
Cc1c(Cl)cccc1NC(=O)c1cc(NC(=O)c2ccccc2C(F)(F)F)cc2[nH]c(N)nc12 [Example 157, hydrochloride]

>  <TEST_RESULT>
0.59

$$$$
>  <COMPOUND>
COCc1nc2c(C(=O)Nc3nc4ccc(Cl)cc4o3)cc(NC(=O)c3ccccc3C(F)(F)F)cc2[nH]1 [Example 233, hydrochloride]

>  <TEST_RESULT>
0.40

$$$$

Result for Cc1c(Cl)cccc1NC(=O)c1cc(NC(=O)c2cc(Cl)ccc2Cl)cc2[nH]c(C3(C)CC3)nc12 [Example 210, hydrochloride] , tested on UniProtKB O14684, log10 IC50: 0.67
